Readings of pIC50 for the listed compounds
# STUDY TARGET: eqBChE (Equus caballus)
# Construct: BuChE from horse serum
# Sequence (P81908 whole entry): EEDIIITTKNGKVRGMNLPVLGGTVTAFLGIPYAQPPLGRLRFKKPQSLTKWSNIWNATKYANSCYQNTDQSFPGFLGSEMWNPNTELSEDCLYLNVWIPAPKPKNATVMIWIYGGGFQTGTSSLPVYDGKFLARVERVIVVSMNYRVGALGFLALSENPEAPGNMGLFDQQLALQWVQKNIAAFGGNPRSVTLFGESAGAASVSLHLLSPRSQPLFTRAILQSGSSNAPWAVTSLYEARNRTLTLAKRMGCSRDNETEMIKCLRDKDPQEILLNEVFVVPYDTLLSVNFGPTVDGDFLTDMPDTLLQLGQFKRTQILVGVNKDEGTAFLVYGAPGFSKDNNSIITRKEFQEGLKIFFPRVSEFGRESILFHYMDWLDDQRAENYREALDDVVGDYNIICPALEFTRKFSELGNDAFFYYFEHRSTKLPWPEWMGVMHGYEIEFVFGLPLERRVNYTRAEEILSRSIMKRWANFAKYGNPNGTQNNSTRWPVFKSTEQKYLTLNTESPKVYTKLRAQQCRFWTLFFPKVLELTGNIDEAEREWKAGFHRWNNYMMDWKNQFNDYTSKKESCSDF
# PROCEDURE DETAILS: biochemical
# CONDITION LABEL: read-out: eqBChE IC50 ± SEM
# log scale: pIC50 equals minus log10 of the concentration in mol/L

# annotated cases, reported pIC50 shown
• CCOC(=O)C1=C(C)NC(C)=C(C(=O)OCC)C1c1ccc(NS(C)(=O)=O)cc1 [Compound 4f] = 5.06
• COC(=O)C1=C(C)NC(C)=C(C(=O)OC)C1c1ccc(NS(=O)(=O)c2ccccc2)cc1 [Compound 4a] = 5.30

Then this compound:
Prompt line: Which pIC50 reading was recorded for the compound CCOC(=O)C1=C(C)NC(C)=C(C(=O)OCC)C1c1ccc(NS(=O)(=O)c2ccccc2)cc1 [Compound 4d] ?
Response line: 6.52
